Where do the numbers come from? From ChEMBL document CHEMBL4390650.

Please respond with reported IC50 for every item in the list.
Test system: MDA-MB-453
Assay: Cytotoxicity against human MDA-MB-453 cells assessed as reduction in cell viability incubated for 48 hrs by MTT assay
Type: functional, cell-based
Conditions: MDA-MB-453, 48 h

Form field IC50 for item COc1cc(C#N)ccc1OCc1nnc(-c2ccc(F)cc2)o1 on MDA-MB-453: 10.5 µM

Form field IC50 for item COc1ccc(-c2nnc(COc3ccc(C#N)c(F)c3)o2)cc1 on MDA-MB-453: 45.5 µM

Form field IC50 for item Fc1ccc(-c2nnc(COc3ccc(-c4nnco4)cc3)o2)cc1 on MDA-MB-453: 38.2 µM

Form field IC50 for item COc1cc(C#N)ccc1OCc1nnc(-c2ccc(C)cc2)o1 on MDA-MB-453: 38.4 µM

Form field IC50 for item Cc1ccc(-c2nnc(COc3ccc(C#N)c(F)c3)o2)cc1 on MDA-MB-453: > 50 µM

Form field IC50 for item COc1cc(C#N)ccc1OCc1nnc(-c2ccc(Cl)cc2)o1 on MDA-MB-453: 33.9 µM

Form field IC50 for item COc1ccc(-c2nnc(COc3ccc(-c4nnco4)cc3)o2)cc1 on MDA-MB-453: 36.2 µM

Form field IC50 for item N#Cc1ccc(OCc2nnc(-c3ccc(Cl)cc3)o2)cc1F on MDA-MB-453: > 50 µM

Form field IC50 for item Clc1ccc(-c2nnc(COc3ccc(-c4nnco4)cc3)o2)cc1 on MDA-MB-453: > 50 µM

Form field IC50 for item Cc1ccc(NC(=O)c2ccc(CN3CCN(C)CC3)cc2)cc1Nc1nccc(-c2cccnc2)n1 on MDA-MB-453: 12.8 µM

Form field IC50 for item N#Cc1ccc(OCc2nnc(-c3ccc(F)cc3)o2)cc1F on MDA-MB-453: 25.1 µM

Form field IC50 for item N#Cc1ccc(OCc2nnc(-c3ccccc3)o2)cc1F on MDA-MB-453: > 50 µM

Form field IC50 for item COc1ccc(-c2nnc(COc3ccc(C#N)cc3OC)o2)cc1 on MDA-MB-453: 13 µM

Form field IC50 for item Cc1ccc(-c2nnc(COc3ccc(-c4nnco4)cc3)o2)cc1 on MDA-MB-453: > 50 µM

Form field IC50 for item c1ccc(-c2nnc(COc3ccc(-c4nnco4)cc3)o2)cc1 on MDA-MB-453: > 50 µM

Form field IC50 for item COc1cc(C#N)ccc1OCc1nnc(-c2ccccc2)o1 on MDA-MB-453: 40.1 µM
